target: FGFR2 (h) (Homo sapiens, UniProt P21802); experiment: FGFR2 (enzymatic assay), TR-FRET; type: biochemical; settings: 0.4 μM ATP, 60 min; pIC50 = -log IC50 (M); average if tested multiple times; read-out: FGFR 2 pIC50 (converted)
Sequence (P21802 22-821): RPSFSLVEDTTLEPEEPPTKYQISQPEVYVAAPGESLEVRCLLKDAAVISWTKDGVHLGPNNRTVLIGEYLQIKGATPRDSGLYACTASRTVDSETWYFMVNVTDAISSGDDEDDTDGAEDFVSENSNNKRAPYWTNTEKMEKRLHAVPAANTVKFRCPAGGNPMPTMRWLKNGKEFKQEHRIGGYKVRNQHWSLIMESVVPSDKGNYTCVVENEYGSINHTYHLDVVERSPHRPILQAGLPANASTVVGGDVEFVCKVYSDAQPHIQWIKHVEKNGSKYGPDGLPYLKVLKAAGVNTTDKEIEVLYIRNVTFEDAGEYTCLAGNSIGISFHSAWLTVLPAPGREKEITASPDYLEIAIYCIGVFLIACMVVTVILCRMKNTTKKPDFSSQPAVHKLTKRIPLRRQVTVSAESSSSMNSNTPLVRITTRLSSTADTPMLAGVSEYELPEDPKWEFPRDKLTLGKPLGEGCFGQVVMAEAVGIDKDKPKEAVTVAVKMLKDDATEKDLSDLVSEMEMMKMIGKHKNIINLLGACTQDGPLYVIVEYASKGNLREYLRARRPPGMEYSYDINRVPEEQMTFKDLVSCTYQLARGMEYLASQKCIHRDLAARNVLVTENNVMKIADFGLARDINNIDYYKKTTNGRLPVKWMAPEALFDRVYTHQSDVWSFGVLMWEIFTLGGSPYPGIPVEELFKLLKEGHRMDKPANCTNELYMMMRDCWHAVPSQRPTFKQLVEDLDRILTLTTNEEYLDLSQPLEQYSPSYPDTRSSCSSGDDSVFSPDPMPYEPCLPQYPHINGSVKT
Measured metric: IC50 (M)
Numbers only, in M.

INSERT INTO results (compound, measured_metric, observed_measurement) VALUES
  ('COc1cc(OC)cc(N(Cc2nccn2S(=O)(=O)N(C)C)c2ccc3ncc(-c4cccnc4)cc3c2)c1 [Compound 60]', 'IC50', '1.95e-08'),
  ('COc1cc(OC)cc(N(CCNC(C)C)c2ccc3ncc(-c4ccccc4)cc3c2)c1 [Compound 51]', 'IC50', '3.98e-09'),
  ('COc1cc(OC)cc(N(CCCN2CCCC2CNS(=O)(=O)C(F)(F)F)c2ccc3ncc(-c4cnn(C)c4)cc3c2)c1 (stereo not shown) [Compound 47]', 'IC50', '3.89e-09'),
  ('COc1cc(OC)cc(N(Cc2ncc[nH]2)c2ccc3ncc(-c4ccn(C)c4)cc3c2)c1 [Compound 62]', 'IC50', '2.09e-09'),
  ('COc1cc(OC)cc(N(CCNC(C)C)c2ccc3ncc(-c4cnn(C)c4)cc3c2)c1 [Compound 1]', 'IC50', '4.95e-09');

API: the following record is the query input.
Request: Param readout= IC50; system= FGFR2 (h) (Homo sapiens, UniProt P21802); entry= COc1cc(OC)cc(N(CCCO)c2ccc3ncc(-c4cnn(C)c4)cc3c2)c1 [Compound 4] ; returns value.
Result: 1.35e-08

Values were extracted from patent US10039759B2.
